These data points were gathered from PubChem BioAssay AID1508600.

test: Components of the Cytosolic LPS Sensing Pathway: Gene Identification via Genome-wide siRNA Screen; conditions: RAW264.7 macrophages, IL-1a HTRF, actives lie on both sides, screened at 100 nM (by protocol), cells primed 5 h with Pam3CSK4 first;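 also: robust z of the log signal after scaling to non-targeting control siRNA wells of the plate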
Out of some 53,000 sequences screened, about 3,700 (7%) were called active. The sample as a whole holds a higher share of actives than the screen did.
experimental-endpoint: z-score
Form: value (number only, do not type unit).

residues | z-score
CCACGAGAAGUGGAUAUUATT against Plcxd3 | -1.1
GGGAGUUAUGUUGGUAUCATT against 1700029F12Rik | -1.38

(Q) z-score lookup needed for GCCUUCUUAACUUCAUCACTT against Taar5 , thanks.
(A) 1.16

---

assay: Components of the Cytosolic LPS Sensing Pathway: Gene Identification via Genome-wide siRNA Screen; conditions: RAW264.7 macrophages, IL-1a HTRF, actives lie on both sides, screened at 100 nM (by protocol), cells primed 5 h with Pam3CSK4 first;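 also: robust z of the log signal after scaling to non-targeting control siRNA wells of the plate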
The whole screen tested about 53,000 sequences, of which about 3,700 (7%) were called active. This excerpt belongs to a sample that is enriched for actives.
# label = true if z-score >= -0.04 else false

Some entries whose results are on file:
residues | category
GGACAAUUCCAGUCAAUAATT against Ccdc115 | false
GGACAGAGCAUCACAGAAGTT against Tmem154 | false
GGCACACUUGAGAAGACACTT against Cul5 | false
GGCGAUCCUUACUCCAAUGTT against Zfp90 | true
GGACGGUCUUGCCUUCUUCTT against Fam222a | true

(Q) Does GGCUCAGAUUGAUAGGAUATT against Gmfg have a reported z-score of at least -0.04?
(A) true

(Q) Now consider CCUAGUACUUCGAAGAAAGTT against Tmem255a and answer again.
(A) false

(Q) // repeat for CCGACUGUUAAAGUGGUGUTT against Arih1 and report
(A) true

(Q) Then this sequence: GGCUCUGUUUAUCCUGGAGTT against Pcdha7
(A) true

(Q) // same read-out, input: GCGAGCAUGAAGUUAGUAATT against C230029F24Rik
(A) true

(Q) What do you get for CGUGUGUUUUACCCUAAAATT against Zfp947 ?
(A) true

(Q) Follow-up item: GCUCUUGAAAUUUCACUCUTT against Ide
(A) true

---

Experiment: Components of the Cytosolic LPS Sensing Pathway: Gene Identification via Genome-wide siRNA Screen;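 also: robust z of the log signal after scaling to non-targeting control siRNA wells of the plate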
Settings: RAW264.7 macrophages, IL-1a HTRF, actives lie on both sides, screened at 100 nM (by protocol), cells primed 5 h with Pam3CSK4 first
Method: Non-canonical inflammasome activation by cytosolic LPS is a critical component of the host response to Gram-negative bacterial infection, however we lack a comprehensive understanding of the cellular processes that control this pathway. […] Lipofectamine RNAiMAX Transfection Reagent ([…]; Invitrogen) was added in […] serum-free, antibiotic-free media to plate wells using a Thermo Scientific Matrix WellMate and Microplate Stacker. […] The plates were read on an EnVision plate reader (PerkinElmer). […]
Among all 53,000 sequences or so, about 3,700 (7%) were called active. This excerpt belongs to a sample that is enriched for actives.
experimental-endpoint: z-score
The answer should be written as a number, with no unit following it.

(Q) Name the recorded z-score for GCAUACCAUCUUAUUUUGGTT against Sptlc1 .
(A) 0.159

(Q) Next up: GGGACAAGUUGGAUUCUUGTT against Polr1e
(A) -0.96

(Q) Subsequent entry: GGUUGGUCACCUAAUCCAGTT against Aldh2
(A) 0.523

(Q) Then what about the sequence GGCUAUGGAAAAAGAUAUGTT against Il21r ?
(A) -1.02

(Q) Param item: GGAGACAGUUCAGAAGUGGTT against Glp2r
(A) 0.0837

(Q) Same again, this time with GGAUGAGGACACCAUUGAUTT against Sumo3
(A) 0.723
